test details: Cycloheximide Counterscreen for Small Molecule Inhibitors of Shiga Toxin
experimental conditions: cell reporter, cycloheximide protein synthesis inhibition counterscreen; stronger effect = higher value
About 37,000 (12%) of roughly 300,000 compounds were called active. Many of the other results were omitted from the sample, so actives are more common in it than they were.
measured property: max response

compound	observed result
O=C1/C(=C/c2cccs2)CCc2ccccc21	62.8% (active)

Consider the compound shown here: "CCCCC(O)(CCCC)C(=O)NN(C(=O)CCl)c1ccccc1" What is its recorded max response?
4.18% (inactive)

And what about the compound "c1ccc2c(c1)CCc1snnc1-2" ?
-1.75% (inactive)

And what about the compound "CN1C/C(=C/c2cccs2)C(=O)/C(=C\c2cccs2)C1" ?
35.9% (active)

And what about the compound "COc1ccc(/C=C2\CCc3ccccc3C2=O)c(OC)c1OC" ?
35.6% (active)

And what about the compound "CN1CCN(C(=O)/C(=C\c2cccs2)NC(=O)c2cccs2)CC1" ?
8.48% (inactive)

And what about the compound "CC(=O)NC(=S)NNC(=O)c1ccc(Br)cc1" ?
12.5% (inactive)

And what about the compound "O=S(=O)(c1cccs1)N1CCc2ccccc2C1" ?
-2.33% (inactive)

And what about the compound "COc1ccc2c(c1OC)C(=O)c1ccccc1C2=O" ?
2.67% (inactive)

And what about the compound O=C1/C(=C/c2cccs2)SC(=S)N1C1CCS(=O)(=O)C1 (configuration not stated) ?
-0.776% (inactive)

And what about the compound "O=C(NCc1cccs1)c1ccc2c(c1)ncn2C1CCCC1" ?
31.8% (active)

And what about the compound CN(Cc1ccccc1)C(=O)c1ccc(NC2=NC3CS(=O)(=O)CC3S2)cc1 (configuration not stated) ?
0.883% (inactive)

----------
test details: Cycloheximide Counterscreen for Small Molecule Inhibitors of Shiga Toxin
experimental conditions: cell reporter, cycloheximide protein synthesis inhibition counterscreen; stronger effect = higher value
Hit rate of the full screen: of about 300,000 compounds, about 37,000 (12%) were called active. Only a selection was taken, and actives are over-represented in it overall.
Form field: max response (one value per entry).
Answer with a number only, understood to be in %.

compound	max response / %
CSc1ncc(Cl)c(C(=O)Nc2cc(C)ccc2C)n1	7.29
CCCCNC(=O)C1(O)c2ccccc2NC(=O)N1c1ccc(Cl)cc1 (stereo unspecified)	7.78
CN(C)S(=O)(=O)Oc1ccccc1C(=O)Nc1ccccc1Cl	-4.26

Consider the compound shown here: "CCOC(=O)Cc1csc(SCc2cc(=O)oc3cc(O)ccc23)n1" What is its recorded max response?
-1.72

And what about the compound "CCOC(=O)c1c(NC(=O)Cn2nc(C(F)(F)F)cc2C)sc2c1CCC2" ?
4.3

And what about the compound "Cc1ccc(S(=O)(=O)CC(=O)Nc2nnc(C)s2)cc1" ?
-6.45

And what about the compound "CCOc1ccc(Nc2nc(Cc3nnc(SCC(=O)c4ccc(C)cc4)o3)cs2)cc1" ?
-3.13

And what about the compound "CC(=O)Nc1ccc(S(=O)(=O)N2CCN(C(=O)c3ccccc3F)CC2)cc1" ?
6.62

----------
test details: Cycloheximide Counterscreen for Small Molecule Inhibitors of Shiga Toxin
experimental conditions: cell reporter, cycloheximide protein synthesis inhibition counterscreen; stronger effect = higher value
Among all 300,000 compounds or so, about 37,000 (12%) were called active. The full list was thinned out, with actives kept by preference.
measured property: max response (%)
Answer with a number only, understood to be in %.

Field: example entries. Status: answers known.
molecule	units of measure	observed result
CCOc1c(Cl)cc(/C=N/O)cc1OC	%	5.27
C=CCOc1ccc(/C=C2/C(=O)ON=C2C)cc1OCC	%	-0.862
O=C(CSc1nnc2n1CCCN2)c1ccccc1	%	38.3

Consider the molecule shown here: "CC(C)(C)c1cc[n+](-c2[nH]c(=O)sc2/C=N/N=C(\[O-])c2ccccc2)cc1" What is its recorded max response?
25.7

And what about the molecule "CCOCc1nnc(NC(=O)CCC2CCCCC2)s1" ?
9.52

And what about the molecule "COc1ccccc1CCNC(=O)C1CCN(C(=O)/C=C/c2ccccc2)CC1" ?
14.7

And what about the molecule "O=C(Nc1cccc(NC(=O)c2cccc(F)c2)c1)c1ccccc1" ?
9.34

And what about the molecule "COc1cc(/C=C2/C(=O)ON=C2C)ccc1OCc1ccccc1F" ?
76

And what about the molecule O=C(CSc1nnc(-c2ccco2)n1CC1CCCO1)c1ccccc1 (configuration not stated) ?
8.39

And what about the molecule "CCN(C(=O)CN1CCN(Cc2ccccc2)CC1)c1c(N)n(Cc2ccccc2)c(=O)[nH]c1=O" ?
-1.94

And what about the molecule "Nc1ccc(-c2nnc(-c3ccc(-c4ccccc4)cc3)o2)cc1" ?
58

----------
Form field: max response (one value per entry).
test details: Cycloheximide Counterscreen for Small Molecule Inhibitors of Shiga Toxin; further: read at 38.3 µM for the half of the compounds with a filed dose; 0% is about no effect
experimental conditions: cell reporter, cycloheximide protein synthesis inhibition counterscreen; stronger effect = higher value
Screen size: about 300,000 compounds; about 37,000 (12%) were called active. Shown is part of a subset that was picked to be rich in actives.
Answer with a number only, understood to be in %.

Field: example entries. Status: answers known.
compound	max response [%]
COc1ccc(NC(=O)NN2CCN(C)CC2)c(OC)c1	0.309
C=CCn1c(C23CC4CC(CC(C4)C2)C3)n[nH]c1=S	-2.9

Consider the compound shown here: "Cc1[nH]c2ccccc2c1/C=C(/C#N)C(=O)NC(C)C" What is its recorded max response?
16.8

----------
test details: Cycloheximide Counterscreen for Small Molecule Inhibitors of Shiga Toxin; further: read at 38.3 µM for the half of the compounds with a filed dose; 0% is about no effect
experimental conditions: cell reporter, cycloheximide protein synthesis inhibition counterscreen; stronger effect = higher value
The campaign covered roughly 300,000 compounds. About 37,000 (12%) were called active. For the sample, actives were picked, then their nearest neighbours and some compounds at random.
measured property: max response (%)
Answer with a number only, understood to be in %.

Field: example entries. Status: answers known.
compound	observed result
Cc1cc(C)nc(N2CCC(C(=O)Nc3ccc4c(c3)OCCO4)CC2)n1	11.4
CC(=O)Nc1ccc(S(=O)(=O)Nc2ccc(-c3ccc4nnc(C)n4n3)cc2)cc1	-1.66
COc1cc(/C=C/C(=O)O)cc(S(=O)(=O)Nc2ccccc2SC)c1OC	-2.09
O=C(O)c1ccccc1-c1ccccc1C(=O)NCCc1ccccc1	0.507
CC(C)NC(=O)C(=O)N/N=C/c1ccco1	6.82
COc1cc(/C=C/C(=O)O)cc(S(=O)(=O)Nc2ccccc2C(=O)NCCc2ccccc2)c1OC	41.8

Consider the compound shown here: "NC(=O)Nc1ccccc1C(=O)NCCc1ccccc1" What is its recorded max response?
63.4

And what about the compound "NC(=O)c1ccccc1NC(=O)c1ccccc1F" ?
14.9

And what about the compound COc1cccc(CN(C)CC(O)COC(c2ccccc2)c2ccccc2C)c1 (stereo unspecified) ?
-4.62

And what about the compound "O=c1nc(N/N=C/c2ccco2)cn[nH]1" ?
35.1

And what about the compound Cc1cc(C)n(-c2ccc(NC(=O)C3CCCCN3C(=O)c3cccs3)cc2)n1 (stereo unspecified) ?
7.2

----------
test details: Cycloheximide Counterscreen for Small Molecule Inhibitors of Shiga Toxin; further: read at 38.3 µM for the half of the compounds with a filed dose; 0% is about no effect
experimental conditions: cell reporter, cycloheximide protein synthesis inhibition counterscreen; stronger effect = higher value
The whole screen tested about 300,000 compounds, of which about 37,000 (12%) were called active. The sample holds actives, similar compounds and a random draw of the others, so the mix is not that of the screen.
measured property: max response (%)
Answer with a number only, understood to be in %.

Field: example entries. Status: answers known.
molecule	units of measure	max response
COc1ccc2c(c1)cc1n2CCN=C1NN	%	64.4
O=C(N/C(=C\c1ccc(O)cc1)C(=O)N1CCCCC1)c1ccccc1	%	-0.421
Cc1ccccc1OCC(=O)N(Cc1cccc(F)c1)C1CCS(=O)(=O)C1 (configuration not stated)	%	-13
COc1ccc2[nH]c(=O)c(CNc3ccc(C)c(C)c3)cc2c1	%	15
COc1ccc(Cc2nnc(N/N=C/c3ccccc3O)[nH]c2=O)cc1OC	%	-1.41

Consider the molecule shown here: Cc1cccc(OCC(O)Cn2c(N3CCCCC3)nc3c2c(=O)[nH]c(=O)n3C)c1 (configuration not stated) What is its recorded max response?
14.8

And what about the molecule "COc1cc(NS(=O)(=O)c2ccc(NC(=O)c3ccc([N+](=O)[O-])cc3)cc2)ncn1" ?
-2.23

And what about the molecule "COc1ccc(/C=N/N(C)C2=NS(=O)(=O)c3ccccc32)cc1OC" ?
-4.65

And what about the molecule "Cc1ccc(OCC(=O)Nc2ccc(N3CCN(C(=O)c4ccco4)CC3)cc2)c(C)c1" ?
-1.02

----------
test details: Cycloheximide Counterscreen for Small Molecule Inhibitors of Shiga Toxin; further: read at 38.3 µM for the half of the compounds with a filed dose; 0% is about no effect
experimental conditions: cell reporter, cycloheximide protein synthesis inhibition counterscreen; stronger effect = higher value
The whole screen tested about 300,000 compounds, of which about 37,000 (12%) were called active. For the sample, actives were picked, then their nearest neighbours and some compounds at random.
measured property: max response (%)
Answer with a number only, understood to be in %.

Field: example entries. Status: answers known.
compound	max response / %
COc1ccc(-c2c(C#Cc3ccccc3)c3ccccc3n2C)cc1	40
O=C(NCCOc1cccnc1)c1ccc(OC2CCN(Cc3ccccn3)CC2)cc1	10.4
O=C(Nc1ccc(Cl)cc1)/C(=C1\CCCN1)[N+](=O)[O-]	5.78
COc1cccc(NC(=O)CN(C)C(=O)/C=C/c2cc(OC)ccc2OC)c1	-0.59
C/C=C/C(=O)OCc1csc(CC(=O)Nc2ccccc2C)n1	7.73

Consider the compound shown here: "O=C(COc1cccc(Cl)c1)NCc1ccccc1" What is its recorded max response?
7.99
